List of Ratio IC50 values.
- Species: Homo sapiens
- method: Selectivity for human eNOS to human iNOS
Give the figure by itself; no unit, no explanation.

# annotated cases, reported Ratio IC50 shown
CCCN1CCC(N(C)Cc2cc(Cl)ccc2C#N)CC1	2
CCCCN1CCC(N(C)Cc2cc(Cl)ccc2C#N)CC1	2
CC(=N)NCCCC[C@H](N)C(=O)O	9
CN(Cc1cc(Cl)ccc1C#N)C1CCNC1 (stereo unspecified)	3
CN1CCC(N(C)Cc2cc(Cl)ccc2C(F)(F)F)CC1	2

Just so you know, measured Ratio IC50 for CCN1CCC(N(C)Cc2cc(Cl)ccc2C#N)CC1 came out at 1

Just so you know, measured Ratio IC50 for CCCN(Cc1cc(Cl)ccc1C#N)C1CCNCC1 came out at 13

Just so you know, measured Ratio IC50 for CN(Cc1cc(Cl)ccc1C#N)C1CCN(Cc2ccccc2)CC1 came out at 16

Just so you know, measured Ratio IC50 for CN1CCC(N(C)Cc2cc(Cl)ccc2[N+](=O)[O-])CC1 came out at 2

Just so you know, measured Ratio IC50 for CCN(Cc1cc(Cl)ccc1C#N)C1CCNCC1 came out at 10

---

List of IC50 values.
- targetDesc: Nitric oxide synthase 1 (Homo sapiens)
- Sequence (P29475 whole entry): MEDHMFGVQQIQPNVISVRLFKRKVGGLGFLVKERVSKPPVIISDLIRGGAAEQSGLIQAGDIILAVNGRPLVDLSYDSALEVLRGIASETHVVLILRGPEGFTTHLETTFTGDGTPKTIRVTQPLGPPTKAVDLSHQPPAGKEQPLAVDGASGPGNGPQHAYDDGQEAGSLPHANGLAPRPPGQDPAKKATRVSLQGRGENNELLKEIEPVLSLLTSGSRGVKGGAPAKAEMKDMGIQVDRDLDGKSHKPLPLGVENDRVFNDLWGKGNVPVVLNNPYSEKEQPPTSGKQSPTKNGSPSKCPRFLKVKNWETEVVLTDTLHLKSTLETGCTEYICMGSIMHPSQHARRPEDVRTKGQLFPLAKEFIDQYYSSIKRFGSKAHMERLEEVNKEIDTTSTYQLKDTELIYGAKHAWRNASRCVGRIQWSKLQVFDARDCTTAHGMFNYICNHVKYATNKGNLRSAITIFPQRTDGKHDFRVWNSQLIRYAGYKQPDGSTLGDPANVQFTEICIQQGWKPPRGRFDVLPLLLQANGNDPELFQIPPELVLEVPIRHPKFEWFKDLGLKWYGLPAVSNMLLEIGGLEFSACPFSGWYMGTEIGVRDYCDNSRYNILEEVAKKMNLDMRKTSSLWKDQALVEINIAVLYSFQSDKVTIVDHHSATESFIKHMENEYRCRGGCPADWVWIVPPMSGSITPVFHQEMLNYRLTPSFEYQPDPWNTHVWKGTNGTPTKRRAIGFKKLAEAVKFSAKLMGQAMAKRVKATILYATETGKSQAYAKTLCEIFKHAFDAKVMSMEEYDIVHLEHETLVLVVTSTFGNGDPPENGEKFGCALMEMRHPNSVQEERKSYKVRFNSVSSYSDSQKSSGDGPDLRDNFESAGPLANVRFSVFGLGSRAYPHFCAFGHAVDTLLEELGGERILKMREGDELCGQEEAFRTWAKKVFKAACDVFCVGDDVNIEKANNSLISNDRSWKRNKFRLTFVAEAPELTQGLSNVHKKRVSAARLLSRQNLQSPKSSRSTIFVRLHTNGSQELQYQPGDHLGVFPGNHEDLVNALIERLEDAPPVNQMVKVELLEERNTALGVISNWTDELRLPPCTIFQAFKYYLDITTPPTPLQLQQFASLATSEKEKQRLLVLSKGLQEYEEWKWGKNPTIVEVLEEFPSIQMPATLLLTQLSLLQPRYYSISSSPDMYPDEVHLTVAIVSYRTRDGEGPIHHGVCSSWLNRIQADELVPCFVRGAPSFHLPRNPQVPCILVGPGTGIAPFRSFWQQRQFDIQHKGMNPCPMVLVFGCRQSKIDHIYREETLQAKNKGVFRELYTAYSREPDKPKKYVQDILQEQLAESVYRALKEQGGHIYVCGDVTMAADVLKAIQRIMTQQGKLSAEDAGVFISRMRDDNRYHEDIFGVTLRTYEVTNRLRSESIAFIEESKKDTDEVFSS
- method: Inhibition of human nNOS expressed in insect SF9 cells after 1 hr
State just the number; it will be interpreted in nM.

# annotated cases, reported IC50 shown
CCCCN1CCC(N(C)Cc2cc(Cl)ccc2C#N)CC1	420
CN1CCC(N(C)Cc2cc(Cl)ccc2Br)CC1	590
CCCN1CCC(N(C)Cc2cc(Cl)ccc2C#N)CC1	810
CC(C)CN(Cc1cc(Cl)ccc1C#N)[C@H]1CCCN(C)C1	6500
CN1CCC(N(C)Cc2cc(Cl)ccc2C(F)(F)F)CC1	780

Form field IC50 for item CN1CCC(N(C)Cc2cc(Cl)ccc2[N+](=O)[O-])CC1 on Nitric oxide synthase 1 (Homo sapiens): 80

---

- targetDesc: Nitric oxide synthase 3 (Homo sapiens)
- method: Inhibition of human eNOS expressed in insect SF9 cells at 10 uM after 1 hr
valueType: inhibition (%)
State just the number; it will be interpreted in %.

# annotated cases, reported inhibition shown
CC(C)CN(Cc1cc(Cl)ccc1C#N)C1CCCNC1 (centres undefined)	15
N#Cc1ccc(Cl)cc1CN(c1ccccc1)C1CCNCC1	0

Consider now this further compound.
Just so you know, measured inhibition for N#Cc1ccc(Cl)cc1CN(C1CCCC1)C1CCNCC1 came out at 1

---

- targetDesc: UniProt P35228
- Sequence (P35228 whole entry): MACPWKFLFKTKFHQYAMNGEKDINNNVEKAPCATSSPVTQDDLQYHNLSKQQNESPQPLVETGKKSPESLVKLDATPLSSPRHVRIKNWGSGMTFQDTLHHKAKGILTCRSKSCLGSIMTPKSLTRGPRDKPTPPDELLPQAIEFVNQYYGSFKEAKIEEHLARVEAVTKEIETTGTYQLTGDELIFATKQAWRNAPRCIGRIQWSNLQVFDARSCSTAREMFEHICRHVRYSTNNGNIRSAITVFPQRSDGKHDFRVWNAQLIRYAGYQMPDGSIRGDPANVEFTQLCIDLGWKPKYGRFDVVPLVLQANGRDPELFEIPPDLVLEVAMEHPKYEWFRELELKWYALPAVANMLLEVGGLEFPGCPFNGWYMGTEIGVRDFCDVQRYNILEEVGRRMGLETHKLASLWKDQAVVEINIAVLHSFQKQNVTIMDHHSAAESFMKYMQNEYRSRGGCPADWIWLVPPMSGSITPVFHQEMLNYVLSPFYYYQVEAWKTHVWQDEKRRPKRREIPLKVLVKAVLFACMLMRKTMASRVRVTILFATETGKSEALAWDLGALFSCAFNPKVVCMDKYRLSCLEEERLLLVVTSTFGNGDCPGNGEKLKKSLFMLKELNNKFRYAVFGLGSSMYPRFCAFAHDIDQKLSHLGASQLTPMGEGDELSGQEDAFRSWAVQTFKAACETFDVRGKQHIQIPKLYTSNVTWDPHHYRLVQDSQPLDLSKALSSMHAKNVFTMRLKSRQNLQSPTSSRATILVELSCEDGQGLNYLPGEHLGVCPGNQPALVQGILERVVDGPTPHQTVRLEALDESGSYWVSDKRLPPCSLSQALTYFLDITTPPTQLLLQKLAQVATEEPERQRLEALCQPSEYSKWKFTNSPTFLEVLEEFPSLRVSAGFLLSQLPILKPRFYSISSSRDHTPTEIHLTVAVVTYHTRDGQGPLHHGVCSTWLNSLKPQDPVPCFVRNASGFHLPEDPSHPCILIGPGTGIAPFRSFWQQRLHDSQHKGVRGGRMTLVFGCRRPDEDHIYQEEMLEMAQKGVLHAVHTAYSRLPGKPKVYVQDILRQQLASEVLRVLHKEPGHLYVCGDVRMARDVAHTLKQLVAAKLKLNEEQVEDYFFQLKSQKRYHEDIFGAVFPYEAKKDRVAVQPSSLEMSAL
- method: Inhibition of human iNOS expressed in human DLD1 cells after 1 hr
- Assay type: cell-based, DLD-1
List of pIC50 values.
Remember the convention: pIC50 equals -log10 of concentration in molar.

# annotated cases, reported pIC50 shown
CN(Cc1cc(Cl)ccc1C#N)C1CCCNCC1 (stereo unspecified)	6.18
CN(Cc1cc(Cl)ccc1C#N)C1CCN(CC2CC2)CC1	6.60
CCCN1CCC(N(C)Cc2cc(Cl)ccc2C#N)CC1	6.17
CN1CCC(N(C)Cc2cc(Cl)ccc2C#N)CC1	6.54
N#Cc1ccc(Cl)cc1CN(CC1CC1)C1CCNCC1	6.80
CC(C)CN1CCC(N(C)Cc2cc(Cl)ccc2C#N)CC1	6.40
CN(Cc1cc(Cl)ccc1C#N)C1CCN(CCc2ccccc2)CC1	6.52
CC(C)CN(Cc1cc(Cl)ccc1C#N)C1CCCNC1 (stereo unspecified)	6.54

Just so you know, measured pIC50 for CN1CCC(N(C)Cc2cc(Cl)ccc2C(F)(F)F)CC1 came out at 6.15

Just so you know, measured pIC50 for CN(Cc1cc(Cl)ccc1C#N)C1CCN(Cc2ccccc2)CC1 came out at 6.57

Just so you know, measured pIC50 for CN(Cc1cc(Cl)ccc1C#N)C1CCNC1 (stereo unspecified) came out at 5.92

Just so you know, measured pIC50 for CC(=N)NCCCC[C@H](N)C(=O)O came out at 6.55

Just so you know, measured pIC50 for CN1CCC(N(C)Cc2cc(Br)ccc2C#N)CC1 came out at 6.68
